- Test system: HT-29
- Assay comment: NCI tumour cell line growth inhibition, 48 h
Calls of active or inactive are those of the source. Rule as the data show it: active = GI50 up to about 1.1 µM and inactive = higher.
Known GI50 of a selection of compounds

Example entries begin here.
compound="CCOc1ccccc1NC(=O)CC1SC(Nc2ccc([N+](=O)[O-])cc2)=NC1=O (stereo unspecified)" target_or_test_system=HT-29 recorded_measurement="21.7 µM (inactive)"
compound="CC(C)=CCc1c(O)ccc2c1OC1c3ccc(O)c(CC=C(C)C)c3OCC21 (stereo unspecified)" target_or_test_system=HT-29 recorded_measurement="> 44.4 µM (inactive)"
compound="COc1cc(/C=C2\\CCC(C)C3=C2NC(=S)NC3c2cc(OC)c(OC)c(OC)c2)cc(OC)c1OC (stereo unspecified)" target_or_test_system=HT-29 recorded_measurement="60.1 µM (inactive)"
compound=Cc1cc(S(=O)(=O)N=C2N(Cc3ccccc3)CCN2Cc2ccccc2)c(S)cc1Cl target_or_test_system=HT-29 recorded_measurement="> 100 µM (inactive)"
compound=O=C(N/C(=C\c1ccccc1)c1nc2ccccc2c(=O)o1)c1ccccc1 target_or_test_system=HT-29 recorded_measurement="> 100 µM (inactive)"

Lookup: Using known records, supply GI50 for `CC(=O)N1CC(C)(C)c2c(C)c(O)c(C)c(C)c21`
Found: > 100 µM (inactive)

Lookup: Using known records, supply GI50 for `CCOc1ccc(NC2=CC(=O)C(=O)c3ccccc32)cc1`
Found: 5.35 µM (inactive)

Lookup: Using known records, supply GI50 for COc1cc([C@@H]2c3cc4c(cc3[C@H](OC3OC5COC(C(C)C)OC5C(O)C3O)C3COC(=O)[C@@H]32)OCO4)cc(OC)c1OC (stereo partly specified)
Found: 2.54 µM (inactive)

Lookup: Using known records, supply GI50 for Cc1ccc(/C=N\NC2c3cc(Cl)ccc3Nc3nc(O)nc(C)c32)cc1 (stereo unspecified)
Found: > 100 µM (inactive)

Lookup: Using known records, supply GI50 for `O=CC(=C(I)I)c1ccccc1`
Found: 3.04 µM (inactive)

Lookup: Using known records, supply GI50 for `NC1=NC(=O)/C(=C/c2ccccc2[N+](=O)[O-])C(N)=N1`
Found: > 100 µM (inactive)

Lookup: Using known records, supply GI50 for CC(C)(C)OC(=O)NC(Cc1ccc(OCc2ccccc2)cn1)C(=O)NCc1ccccc1 (stereo unspecified)
Found: 29.9 µM (inactive)

Lookup: Using known records, supply GI50 for `CCN(CC)c1ccc2cc(C(=O)Nc3ccccc3)c(=N)oc2c1`
Found: > 100 µM (inactive)

Lookup: Using known records, supply GI50 for CCOC1Oc2ccccc2-c2nc(N)ncc21 (stereo unspecified)
Found: 34.8 µM (inactive)

Lookup: Using known records, supply GI50 for `CSC(SC)=C1C(=O)NN=C1C`
Found: > 100 µM (inactive)

Lookup: Using known records, supply GI50 for `O=C(Nn1c(-c2ccccc2)nc2ccccc2c1=O)c1ccc(O)cc1`
Found: > 100 µM (inactive)

Lookup: Using known records, supply GI50 for COc1cc2cc(C(=O)N3CC(CCl)c4c3cc(NC(=O)C(C)(C)c3ccccc3[N+](=O)[O-])c3ccccc43)[nH]c2c(OC)c1OC (stereo unspecified)
Found: 1.6 µM (inactive)

Lookup: Using known records, supply GI50 for COC(=O)C(C(=O)C(=O)NC1Nc2ccc(C)cc2S1)c1nc2ccc(Cl)cc2nc1O (stereo unspecified)
Found: > 100 µM (inactive)

Lookup: Using known records, supply GI50 for `COC(=O)C1=C(C(=O)OC)SC(=C(/N=N/c2ccccc2)c2ccccc2)S1`
Found: > 100 µM (inactive)

Lookup: Using known records, supply GI50 for `O=C1CC(=O)NC(NNS(=O)(=O)c2ccccc2)=N1`
Found: > 100 µM (inactive)

Lookup: Using known records, supply GI50 for CC1CC(C)(C)CC(OCCN2CCCCC2)(c2ccccc2)C1 (stereo unspecified)
Found: 1.89 µM (inactive)

====

- Tested on: RXF 393
- Assay comment: NCI tumour cell line growth inhibition, 48 h
Calls of active or inactive are those of the source. Rule as the data show it: active = GI50 up to about 1.1 µM and inactive = higher.
Please reply with one of these outcomes: active, inactive

compound=COc1ccc2nc(-c3ccc(O)cc3)sc2c1 target_or_test_system="RXF 393" group=inactive

Lookup: Would you mind telling me which call this test gave `CSc1nc(-c2cc3c(c(SC)n2)CCCCC3)cc2c1CCCCC2` ?
Found: inactive

Lookup: Would you mind telling me which call this test gave `c1ccc(C(=NNc2cnc3ccccc3n2)c2ccccn2)cc1` ?
Found: inactive

Lookup: Would you mind telling me which call this test gave `COc1cc([N+](=O)[O-])c(OC)c2c(Nc3ccc(S(=O)(=O)O)c4cc(S(=O)(=O)O)cc(S(=O)(=O)O)c34)cc(C)nc12` ?
Found: inactive

Lookup: Would you mind telling me which call this test gave `COc1cc(/C=C(\C#N)C(N)=O)cc(Br)c1O` ?
Found: inactive

Lookup: Would you mind telling me which call this test gave `CC(=O)N1CC(C)(C)c2c(C)c(O)c(C)c(C)c21` ?
Found: inactive

Lookup: Would you mind telling me which call this test gave CC(=O)C(CN(C(C)C)C(C)C)C(c1ccccc1)c1c(O)c2ccccc2oc1=O (configuration not stated) ?
Found: inactive

Lookup: Would you mind telling me which call this test gave `C/C(=N\Nc1nc2ccccc2[nH]1)c1cc2ccccc2cn1` ?
Found: active

Lookup: Would you mind telling me which call this test gave CC(=O)CC1(CBr)Nc2ccc([N+](=O)[O-])cc2NC1=O (configuration not stated) ?
Found: inactive

Lookup: Would you mind telling me which call this test gave `CCNCCCNc1c2ccccc2nc2ccccc12` ?
Found: active

Lookup: Would you mind telling me which call this test gave CC(C)N(C(C)C)S(=O)(=O)CC12CCC(C/C1=N\O)C2 (configuration not stated) ?
Found: inactive

Lookup: Would you mind telling me which call this test gave `O=[N+]([O-])/C=C1\COCc2cc3c(cc21)OCO3` ?
Found: inactive

====

Known GI50 of a selection of molecules
- Tested on: A498
- Assay comment: NCI tumour cell line growth inhibition, 48 h
Activity calls are given as the source filed them. Rule as the data show it: active = GI50 up to about 1.1 µM and inactive = higher.

Example entries begin here.
molecule=Nn1c(=O)n(Cc2ccccc2)n(-c2ccccc2)c1=O recorded_measurement="> 100 µM (inactive)"
molecule=Cc1cccc2c1c1ccc3c(c1n2C)C(=O)C=CC3=O recorded_measurement="27.4 µM (inactive)"
molecule=O=C(O)c1ccc(C(=O)Nc2cccc3ccccc23)c(C(=O)O)c1 recorded_measurement="> 100 µM (inactive)"
molecule=O=S1(=O)N2CN3CN(C2)CN1C3 recorded_measurement="223 µM (inactive)"
molecule="C=CCNC(=O)C(C)C1CCC2(C)C=CC(=O)C(C)=C2C1O (configuration not stated)" recorded_measurement="> 100 µM (inactive)"

Lookup: Tell me GI50 of `O=C(N/N=C(COc1ccccc1Cl)\N=C\c1cccnc1)c1ccncc1` when tested on A498.
Found: > 100 µM (inactive)

Lookup: Tell me GI50 of CC(C)=CCc1c(O)ccc2c1OC1c3ccc(O)c(CC=C(C)C)c3OCC21 (configuration not stated) when tested on A498.
Found: 11.9 µM (inactive)

Lookup: Tell me GI50 of COc1cc2c(cc1OC)C1CN3CCCC3C(O)C1c1cc(OC)c(OC)cc1-2 (configuration not stated) when tested on A498.
Found: > 100 µM (inactive)

Lookup: Tell me GI50 of `O=C1N(CN2CCOCC2)CN(CN2CCOCC2)C(=O)N1Cc1ccccc1` when tested on A498.
Found: > 100 µM (inactive)

Lookup: Tell me GI50 of `CC(=O)Oc1cc(Cl)c(C)c2c1[C@H]1CC[C@]3(C)[C@@H](OC(C)=O)CC[C@H]3[C@@H]1CC2` when tested on A498.
Found: > 100 µM (inactive)

====

- Tested on: COLO 205
- Assay comment: NCI tumour cell line growth inhibition, 48 h
The source made the active and inactive calls. Cut-off read from the data, not from the text of the source: active = GI50 up to about 1.1 µM and inactive = higher.
Please reply with one of these outcomes: Y for active, N for inactive

Take a look at these entries with their results.
compound="Nc1nc(N)c2c(n1)NC(c1ccccc1)CC(/C=C/c1ccc(Cl)cc1)=N2 (centres undefined)" group=N
compound=CCO/C=C1\SC(=S)N(c2ccc(OCC)cc2)C1=O group=N
compound=CN(C)CCNc1c([N+](=O)[O-])cc2c3c(cccc13)C(=O)N(CCN(C)C)C2=O group=Y
compound="CC1=CP(=O)(OC(C)C)CC(C)=C1Cl (centres undefined)" group=N
compound="CC1(CO)C(O)CCC2(C)C1CCC1CC3CC12CCC3(O)CO (centres undefined)" group=N

Lookup: Would you mind telling me which call this test gave `Cc1c(C)c2c(c(N)c1C#N)C(=O)N(Cc1ccc(S(N)(=O)=O)cc1)C2=O` ?
Found: N

Lookup: Would you mind telling me which call this test gave `O=C1c2cc3c(cc2CC12Cc1cc4c(cc1C2=O)CCC4)CCC3` ?
Found: N

Lookup: Would you mind telling me which call this test gave CCOC1Oc2ccccc2-c2nc(N)ncc21 (centres undefined) ?
Found: N

Lookup: Would you mind telling me which call this test gave `CCN(CC)c1ccc2cc(C(=O)Nc3ccccc3)c(=N)oc2c1` ?
Found: N

Every entry's value here was drawn from ChEMBL document CHEMBL1201862.
